B1: Tyrosine-protein kinase BTK, residues 215 to 273; numbered along this chain, Q06187 (parent)
chain: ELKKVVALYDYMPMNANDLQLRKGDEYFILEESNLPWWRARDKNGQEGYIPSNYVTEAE

# Variants of: B1
# Experiment: abundance fitness (aPCA) (normalised: wild type 0, dead -1); higher = more abundant; growth selection in yeast, the domain comes from the species named
# Assay Setup: Homo sapiens
Decision: abundance fitness compared against -0.03; not below it gives True, below it gives False.

Before answering, review these 4 worked examples.
L30Q : False
P36W : False
N34R : True
W38T : True

Here is the next item to consider.
Q. Please check the record `P36I` and state if its abundance fitness is at or above -0.03.
A. False
